- measured-on: Ribonuclease H1 (Homo sapiens)
- test-description: inhibition of human ribonuclease H1 activity – biochemical, FRET RNA/DNA duplex cleavage, dose response (AID 366);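 note: potency is for inhibitors that lower RNA cleavage and so lower fluorescence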
- assay-setup: human RNase H1, FRET RNA/DNA duplex cleavage, fluorescence
Active and inactive are the calls of the source. The rule behind the calls is not given here.
Pick from t (active), f (inactive) when you respond.

Solved cases (4 shown):
# molecule, measured-on, class
records = [
    ("C=Cc1c(C)c2cc3[nH]c(cc4nc(cc5nc(cc1[nH]2)C(C)=C5CCC(=O)O)C(CCC(=O)O)=C4C)c(C)c3C=C", "Ribonuclease H1 (Homo sapiens)", "t"),
    ("Cc1sc(NC(=O)C2CCCO2)c(C(N)=O)c1C (stereo not given)", "Ribonuclease H1 (Homo sapiens)", "f"),
    ("C=C(CCC(C(=O)O)C1CCC2(C)C3=C(CCC12C)C1(C)CCC(O)C(C)(C)C1CC3)C(C)C (stereo not given)", "Ribonuclease H1 (Homo sapiens)", "t"),
    ("O=c1c(O)cccc2cc(O)c(O)c(O)c12", "Ribonuclease H1 (Homo sapiens)", "t"),
]

# input for lookup
Query: Dear colleague, could you share the recorded outcome for O=C(Nc1sc2c(c1C(=O)Nc1cccc3ccccc13)CCCCC2)c1ccccc1F when you have a moment?
Reply: t

* * *

- measured-on: Ribonuclease H1 (Homo sapiens) (UniProt O60930)
- Sequence (O60930 whole entry, looked up): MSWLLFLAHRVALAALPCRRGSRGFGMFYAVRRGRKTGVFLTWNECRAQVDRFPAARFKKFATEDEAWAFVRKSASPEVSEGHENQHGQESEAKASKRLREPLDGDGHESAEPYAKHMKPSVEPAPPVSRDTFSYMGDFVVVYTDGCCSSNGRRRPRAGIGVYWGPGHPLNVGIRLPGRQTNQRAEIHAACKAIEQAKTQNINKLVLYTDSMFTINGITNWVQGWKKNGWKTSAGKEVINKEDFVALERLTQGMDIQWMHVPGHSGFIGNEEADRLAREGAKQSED
- test-description: inhibition of human ribonuclease H1 activity – biochemical, FRET RNA/DNA duplex cleavage, dose response (AID 366);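 note: potency is for inhibitors that lower RNA cleavage and so lower fluorescence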
- assay-setup: human RNase H1, FRET RNA/DNA duplex cleavage, fluorescence
Calls of active or inactive are those of the source. No rule for the calls is given here.
Pick from T (active), F (inactive) when you respond.

Solved cases (8 shown):
# molecule, measured-on, class
rows = [
    ("COc1ccc2oc(=O)c(-c3csc(Nc4ccc(Br)cc4)n3)cc2c1", "Ribonuclease H1 (Homo sapiens) (UniProt O60930)", "T"),
    ("Cc1ccc(S(=O)(=O)/N=C2\\C=CC(=O)C=C2Cl)cc1", "Ribonuclease H1 (Homo sapiens) (UniProt O60930)", "T"),
    ("CC(C)=CCC(O)C1=CC(=O)c2c(O)ccc(O)c2C1=O (stereo not given)", "Ribonuclease H1 (Homo sapiens) (UniProt O60930)", "T"),
    ("O=C1NC(=S)N(c2ccccc2F)C(=O)/C1=C/c1ccc(OCc2cccc(C(=O)O)c2)cc1", "Ribonuclease H1 (Homo sapiens) (UniProt O60930)", "T"),
    ("Cc1ccc(C(=O)Nc2sc(C)c(C)c2C(N)=O)cc1", "Ribonuclease H1 (Homo sapiens) (UniProt O60930)", "T"),
    ("Cc1ccc(C=C2C(=O)NC(=S)N(c3ccccc3Cl)C2=O)o1", "Ribonuclease H1 (Homo sapiens) (UniProt O60930)", "F"),
    ("Ic1ccc2c(c1)N(c1ccccc1)c1cc(N=c3ccc4nc5ccc(I)cc5n(-c5ccccc5)c-4c3)ccc1N2", "Ribonuclease H1 (Homo sapiens) (UniProt O60930)", "T"),
    ("O=C(N/N=C/c1ccc(/C=N/NC(=O)c2ccc(O)c(O)c2)cc1)c1ccc(O)c(O)c1", "Ribonuclease H1 (Homo sapiens) (UniProt O60930)", "T"),
]

Query: Dear colleague, could you share the recorded outcome for O=[N+]([O-])c1cc(Cc2cc([N+](=O)[O-])c3cccnc3c2O)c(O)c2ncccc12 when you have a moment?
Reply: T

Query: Dear colleague, could you share the recorded outcome for Cc1sc(NC(=O)C2CC3CCC2C3)c(C(N)=O)c1C (stereo not given) when you have a moment?
Reply: F

* * *

- measured-on: Ribonuclease H1 (Homo sapiens) (UniProt O60930)
- test-description: inhibition of human ribonuclease H1 activity – biochemical, FRET RNA/DNA duplex cleavage, dose response (AID 366);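 note: potency is for inhibitors that lower RNA cleavage and so lower fluorescence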
- assay-setup: human RNase H1, FRET RNA/DNA duplex cleavage, fluorescence
Activity calls are given as the source filed them. The rule behind the calls is not given here.
Pick from active, inactive when you respond.

# compound, class
rows = [
    ("CCOc1ccc(NC(=O)c2c(NC(=O)c3ccccc3)sc3c2CCCCC3)cc1", "active"),
    ("CCCc1cc(=O)oc2c3c(c4c(c12)OC(C)(C)C=C4)O[C@H](C)[C@@H](C)[C@H]3OC", "active"),
    ("C[C@@H]1Oc2c3c(c4c(-c5ccccc5)cc(=O)oc4c2C(=O)[C@H]1C)OC(C)(C)C=C3", "active"),
    ("O=c1[nH]c2[nH]c(=S)[nH]c(=S)c2[nH]1", "active"),
    ("COc1cc(/C=N\\c2sc3c(c2C(=O)NCc2ccccc2)CCCC3)cc(Cl)c1O", "active"),
]

Query: Dear colleague, could you share the recorded outcome for Nc1nc(Sc2ccc([N+](=O)[O-])c3nonc23)c2[nH]cnc2n1 when you have a moment?
Reply: inactive

Query: Dear colleague, could you share the recorded outcome for O=C1C=CC(=NS(=O)(=O)c2ccc(Cl)c([N+](=O)[O-])c2)C=C1 when you have a moment?
Reply: active

Query: Dear colleague, could you share the recorded outcome for COc1ccc(/C=C\C(=O)c2c(-c3ccccc3)c3cc(C)ccc3[nH]c2=O)c(OC)c1 when you have a moment?
Reply: active

Query: Dear colleague, could you share the recorded outcome for O=C1C=CC(=O)c2c(O)cccc21 when you have a moment?
Reply: active

Query: Dear colleague, could you share the recorded outcome for N#Cc1c(NC(=O)C(F)(F)F)sc2c3c(=O)c4ccccc4c(=O)c=3oc3ccccc3c12 when you have a moment?
Reply: inactive

Query: Dear colleague, could you share the recorded outcome for O=C1O/C(=C(/C(=O)O)c2ccc(O)cc2)C(O)=C1c1cc2c3c(c(O)cc(C4=C(O)/C(=C(\C(=O)O)c5ccc(O)cc5)OC4=O)c3c1)OC2=O when you have a moment?
Reply: active

* * *

- measured-on: Ribonuclease H1 (Homo sapiens)
- test-description: inhibition of human ribonuclease H1 activity – biochemical, FRET RNA/DNA duplex cleavage, dose response (AID 366); call rule not given here;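 note: potency is for inhibitors that lower RNA cleavage and so lower fluorescence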
- assay-setup: human RNase H1, FRET RNA/DNA duplex cleavage, fluorescence
Pick from active, inactive when you respond.

Query: Dear colleague, could you share the recorded outcome for O=C1NC(=S)N(c2cccc(Cl)c2)C(=O)/C1=C\C=C\c1ccco1 when you have a moment?
Reply: active

Query: Dear colleague, could you share the recorded outcome for Cc1sc(NC(=O)c2ccc3c(c2)OCO3)c(C(N)=O)c1C when you have a moment?
Reply: active

* * *

- measured-on: Ribonuclease H1 (Homo sapiens) (UniProt O60930)
- test-description: inhibition of human ribonuclease H1 activity – biochemical, FRET RNA/DNA duplex cleavage, dose response (AID 366);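 note: potency is for inhibitors that lower RNA cleavage and so lower fluorescence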
- assay-setup: human RNase H1, FRET RNA/DNA duplex cleavage, fluorescence
Active and inactive are the calls of the source. How the calls were made is not given here.
Pick from yes = active, no = inactive when you respond.

Solved cases (5 shown):
# compound, measured-on, class
data = [
    ("CC(C)=Cc1cc(CCC/C(C)=C/Cc2c(O)cc(C)c(C(=O)O)c2O)co1", "Ribonuclease H1 (Homo sapiens) (UniProt O60930)", "yes"),
    ("CCOc1cccc(N2C(=O)/C(=C/c3cn(CC(=O)OC)c4ccccc34)C(=O)NC2=S)c1", "Ribonuclease H1 (Homo sapiens) (UniProt O60930)", "yes"),
    ("O=C1/C(=C/c2ccco2)C(=O)N(c2ccc(Br)cc2)C(=S)N1c1ccccc1", "Ribonuclease H1 (Homo sapiens) (UniProt O60930)", "yes"),
    ("C[C@@H]1[C@H](O)c2c(c3c(c4c(-c5ccccc5)cc(=O)oc24)OC(C)(C)C=C3)O[C@@H]1C", "Ribonuclease H1 (Homo sapiens) (UniProt O60930)", "yes"),
    ("CN(C)CS/C(N)=N/C(O)C(Cl)(Cl)Cl (centres undefined)", "Ribonuclease H1 (Homo sapiens) (UniProt O60930)", "no"),
]

Query: Dear colleague, could you share the recorded outcome for Cc1c(Cl)ccc2c1NC(C(=O)O)C1CC=CC21 (centres undefined) when you have a moment?
Reply: yes

Query: Dear colleague, could you share the recorded outcome for NC(=O)c1c(N)sc2c1CCCCC2 when you have a moment?
Reply: no

Query: Dear colleague, could you share the recorded outcome for CC(=O)/C=C/C=C/c1ccc2c(c1)OC(CO)C(c1ccc(O)c(O)c1)O2 (centres undefined) when you have a moment?
Reply: yes

Query: Dear colleague, could you share the recorded outcome for CCOc1ccc(NC(=O)c2c(NC(=O)c3ccco3)sc3c2CCCCC3)cc1 when you have a moment?
Reply: yes

Query: Dear colleague, could you share the recorded outcome for O=C(Cc1ccccc1Cl)c1ccc(O)c(O)c1O when you have a moment?
Reply: no

Query: Dear colleague, could you share the recorded outcome for COc1ccc2c(c1)N(C(=O)CN1C(=O)c3ccccc3C1=O)C(C)(C)c1ssc(=S)c1-2 when you have a moment?
Reply: no

Query: Dear colleague, could you share the recorded outcome for Cc1cccc(NCC(=O)N/N=C\c2c(Br)cc(Br)c(O)c2Br)c1 when you have a moment?
Reply: no

Query: Dear colleague, could you share the recorded outcome for Cc1ccc(-c2c(C#N)c(SCC(=O)c3ccc(O)c(O)c3)nc3c2CCCC3)o1 when you have a moment?
Reply: yes

Query: Dear colleague, could you share the recorded outcome for NCC[Se][Se]CCN when you have a moment?
Reply: yes

Query: Dear colleague, could you share the recorded outcome for O=C1C(Cl)=C/C(=N\S(=O)(=O)c2ccc(Cl)cc2)C(Cl)=C1Cl when you have a moment?
Reply: yes

Query: Dear colleague, could you share the recorded outcome for O=C1C=CC(=O)C(c2cccc(Cl)c2)=C1 when you have a moment?
Reply: yes

Query: Dear colleague, could you share the recorded outcome for CC(C)=CCC/C(C)=C/Cc1cc(/C=C/c2cc(O)c(C/C=C(\C)CCC=C(C)C)c(O)c2)cc(O)c1O when you have a moment?
Reply: yes

Query: Dear colleague, could you share the recorded outcome for Cc1ccc(N2C(=O)/C(=C/c3ccc(O)c(O)c3)SC2=S)cc1C when you have a moment?
Reply: yes

Query: Dear colleague, could you share the recorded outcome for COc1c(OC)c(O)c2c(=O)cc(-c3ccc(O)c(O)c3)oc2c1OC when you have a moment?
Reply: no

Query: Dear colleague, could you share the recorded outcome for Cc1ccc(C(=O)NC(=S)Nc2ccc(-c3nc4ccccc4s3)cc2)cc1[N+](=O)[O-] when you have a moment?
Reply: yes

Query: Dear colleague, could you share the recorded outcome for Cc1cccc(NC(=O)c2c(NC(=O)c3ccc([N+](=O)[O-])cc3)sc3c2CCCC3)c1 when you have a moment?
Reply: yes
